Numbers sourced from ChEMBL document CHEMBL4619736.

I'd be grateful if you could share measured MIC for these entries.
Tested on: Pseudomonas aeruginosa
protocol-description: Antibacterial activity against Pseudomonas aeruginosa ATCC 27853 by CLSI based broth microdilution method
Type: functional
Numbered stars: 1 amine (or outer) side, 2 acyl side, 3 side chain; on linkers, the order of the positions; unused ones are H or OH. Bridge positions count the residues as written; N and C are the ends. Square brackets hold non-standard residues; d marks the D form. Peptide text beside a SMILES is read from it. * marks the point of attachment. X2 = O=C([C@@H](Cc1ccc(-c2ccncc2)cc1)N[*:1])[*:2]; GABA(3R-Bn) = O=C(C[C@H](CN[*:1])Cc1ccccc1)[*:2]; X1 = CC[C@H](C)CCCCC(=O)*; Dab = NCC[C@H](N)C(=O)O; Dap = NC[C@H](N)C(=O)O
Give bare numbers, in µg/mL.

The examples below pair each entry with its known result.
compound	MIC, µg/mL
CC(C)C[C@@H]1NC(=O)[C@@H](Cc2ccccc2)NC(=O)[C@H](CCN)NC(=O)[C@@H](NC(=O)[C@H](CN)NC(=O)[C@@H](NC(=O)C[C@H](CN)C2CCCCC2)[C@@H](C)O)CCNC(=O)[C@H]([C@@H](C)O)NC(=O)[C@H](CCN)NC(=O)[C@H](CCN)NC1=O	0.06
CC[C@H](C)CCCCC(=O)N[C@@H](CCN)C(=O)N[C@H](C(=O)N[C@@H](CCN)C(=O)N[C@H]1CCNC(=O)[C@H]([C@@H](C)O)NC(=O)[C@H](CCN)NC(=O)[C@H](CCN)NC(=O)[C@H](CC(C)C)NC(=O)[C@@H](Cc2ccc(-c3ccccc3)cc2)NC(=O)[C@H](CCN)NC1=O)[C@@H](C)O	1
CC[C@H](C)CCCCC(=O)N[C@@H](CCN)C(=O)N[C@H](C(=O)N[C@@H](CCN)C(=O)N[C@H]1CCNC(=O)[C@H]([C@@H](C)O)NC(=O)[C@H](CCN)NC(=O)[C@H](CCN)NC(=O)[C@H](CC(C)C)NC(=O)[C@@H](Cc2ccccc2)NC(=O)[C@H](CCN)NC1=O)[C@@H](C)O (X1-[Dab]T[Dab][Dab][Dab][dF]L[Dab][Dab]T; lactam 4-C)	0.5
CC[C@H](C)CCCCC(=O)N[C@@H](CCN)C(=O)N[C@H](C(=O)N[C@@H](CCN)C(=O)N[C@H]1CCNC(=O)[C@H]([C@@H](C)O)NC(=O)[C@H](CCN)NC(=O)[C@H](CCN)NC(=O)[C@H](CC(C)C)NC(=O)[C@@H](CC2CCCCC2)NC(=O)[C@H](CCN)NC1=O)[C@@H](C)O	1
CC(C)C[C@@H]1NC(=O)[C@@H](CC2CCCCC2)NC(=O)[C@H](CCN)NC(=O)[C@@H](NC(=O)[C@H](CCN)NC(=O)[C@@H](NC(=O)C[C@H](CN)Cc2ccccc2)[C@@H](C)O)CCNC(=O)[C@H]([C@@H](C)O)NC(=O)[C@H](CCN)NC(=O)[C@H](CCN)NC1=O	0.25

Hi, could you look up MIC for each item in my list?
1. CC(C)C[C@@H]1CNC[C@@H](C(=O)N[C@H](C(=O)N[C@@H](CN)C(=O)N[C@H]2CCNC(=O)[C@H]([C@@H](C)O)NC(=O)[C@H](CCN)NC(=O)[C@H](CCN)NC(=O)[C@H](CC(C)C)NC(=O)[C@@H](Cc3ccc(-c4ccccc4)cc3)NC(=O)[C@H](CCN)NC2=O)[C@@H](C)O)C1
2. CC[C@H](C)CCCCC(=O)N[C@@H](CCN)C(=O)N[C@H](C(=O)N[C@@H](CCN)C(=O)N[C@H]1CCNC(=O)[C@H]([C@@H](C)O)NC(=O)[C@H](CCN)NC(=O)[C@H](CCN)NC(=O)[C@H](CC(C)C)NC(=O)[C@@H](Cc2ccc(-c3ccncc3)cc2)NC(=O)[C@H](CCN)NC1=O)[C@@H](C)O (X1-[Dab]T[Dab][Dab][Dab][X2]L[Dab][Dab]T; lactam 4-C)
3. CC(C)C[C@@H]1NC(=O)[C@@H](CC2CCCCC2)NC(=O)[C@H](CCN)NC(=O)[C@@H](NC(=O)[C@H](CN)NC(=O)[C@@H](NC(=O)C[C@H](CN)Cc2ccccc2)[C@@H](C)O)CCNC(=O)[C@H]([C@@H](C)O)NC(=O)[C@H](CCN)NC(=O)[C@H](CCN)NC1=O
4. CC(C)C[C@@H]1NC(=O)[C@@H](Cc2ccccc2)NC(=O)[C@H](CCN)NC(=O)[C@@H](NC(=O)[C@H](CN)NC(=O)[C@@H](NC(=O)C[C@H](CN)Cc2ccccc2)[C@@H](C)O)CCNC(=O)[C@H]([C@@H](C)O)NC(=O)[C@H](CCN)NC(=O)[C@H](CCN)NC1=O ({GABA(3R-Bn)}-T[Dap][Dab][Dab][dF]L[Dab][Dab]T; lactam 3-C)
5. CC(C)C[C@@H]1NC(=O)[C@@H](Cc2ccccc2)NC(=O)[C@H](CCN)NC(=O)[C@@H](NC(=O)[C@H](CN)NC(=O)[C@@H](NC(=O)[C@@H]2CNCCN2CC(C)C)[C@@H](C)O)CCNC(=O)[C@H]([C@@H](C)O)NC(=O)[C@H](CCN)NC(=O)[C@H](CCN)NC1=O
6. CC(C)C[C@@H]1NC(=O)[C@@H](Cc2ccc(-c3ccccc3)cc2)NC(=O)[C@H](CCN)NC(=O)[C@@H](NC(=O)[C@H](CN)NC(=O)[C@@H](NC(=O)[C@@H]2CNCCN2CC(C)C)[C@@H](C)O)CCNC(=O)[C@H]([C@@H](C)O)NC(=O)[C@H](CCN)NC(=O)[C@H](CCN)NC1=O

[0.5, 1, 0.25, 0.125, 0.5, 0.5]
